- target-desc: HER2 S310F (Homo sapiens, UniProt P04626, S310F)
- Construct: expressed in transfected cells; host or cells: BaF3 (murine pro-B)
- Sequence (P04626 23-1255 S310F): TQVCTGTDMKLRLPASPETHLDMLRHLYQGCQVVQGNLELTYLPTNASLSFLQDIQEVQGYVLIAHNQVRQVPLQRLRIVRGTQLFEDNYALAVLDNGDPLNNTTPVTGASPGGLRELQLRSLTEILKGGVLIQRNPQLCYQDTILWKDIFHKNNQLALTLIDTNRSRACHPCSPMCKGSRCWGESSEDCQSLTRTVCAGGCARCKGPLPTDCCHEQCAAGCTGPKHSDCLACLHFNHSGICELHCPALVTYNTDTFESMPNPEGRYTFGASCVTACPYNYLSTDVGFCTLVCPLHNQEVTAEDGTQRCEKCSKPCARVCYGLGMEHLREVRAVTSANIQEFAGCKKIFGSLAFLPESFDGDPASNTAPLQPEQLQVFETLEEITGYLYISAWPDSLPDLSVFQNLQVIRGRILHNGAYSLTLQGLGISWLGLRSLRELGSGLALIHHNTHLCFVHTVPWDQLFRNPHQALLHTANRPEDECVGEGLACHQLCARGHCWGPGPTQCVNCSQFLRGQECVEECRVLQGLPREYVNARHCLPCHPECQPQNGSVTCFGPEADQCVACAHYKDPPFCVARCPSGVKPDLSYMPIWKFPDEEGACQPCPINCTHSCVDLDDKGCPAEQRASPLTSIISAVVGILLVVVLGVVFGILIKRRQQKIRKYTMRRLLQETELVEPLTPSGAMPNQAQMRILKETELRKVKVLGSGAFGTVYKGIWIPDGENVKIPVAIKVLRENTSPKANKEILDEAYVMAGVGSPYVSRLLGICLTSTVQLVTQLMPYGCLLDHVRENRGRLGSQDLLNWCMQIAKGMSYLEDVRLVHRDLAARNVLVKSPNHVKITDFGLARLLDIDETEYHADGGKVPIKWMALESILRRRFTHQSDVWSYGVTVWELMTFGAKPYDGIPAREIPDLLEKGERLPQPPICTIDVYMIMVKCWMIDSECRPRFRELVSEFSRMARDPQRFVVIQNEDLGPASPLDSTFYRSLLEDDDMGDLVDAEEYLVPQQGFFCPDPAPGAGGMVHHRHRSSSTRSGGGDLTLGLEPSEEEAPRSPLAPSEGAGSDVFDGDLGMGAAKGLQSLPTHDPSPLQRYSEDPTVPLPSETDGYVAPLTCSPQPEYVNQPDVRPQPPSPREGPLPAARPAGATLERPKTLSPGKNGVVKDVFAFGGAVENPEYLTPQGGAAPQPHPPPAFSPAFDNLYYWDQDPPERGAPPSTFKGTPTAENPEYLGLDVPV
- test: Activity for inhibiting HER2 (Table B), HER2 S310F
- Type: cell-based
- protocol-conditions: read-out: HER2 S310F, potency code (IC50)
- Method: EC50 values were determined with the same application.
Listing: IC50 of selected compounds
measured-quantity: IC50

| compound | endpoint-result |
| --- | --- |
| C=CC(=O)Nc1cc2c(Nc3ccc(OCc4cccc(C)n4)c(Cl)c3)ncnc2cc1OCCCN1CC(OC)C1 | 30 to 50 nM |
| C=CC(=O)Nc1cc2c(Nc3cc(Cl)c(OCc4cccc(F)c4)cc3F)ncnc2cc1OCCN1CCN(C)CC1 | 30 to 50 nM |
| C=CC(=O)Nc1cc2c(Nc3cc(Cl)c(OCc4cccc(F)c4)cc3F)ncnc2cc1OCCN1CC(OC)C1 | 30 to 50 nM |
| C=CC(=O)Nc1cc2c(Nc3ccc(OCc4ccccn4)cc3)ncnc2cc1OCC1COCCN1 (stereo not shown) | 100 to 200 nM |
| C=CC(=O)Nc1cc2c(Nc3ccc(OCc4ccccn4)c(Cl)c3)ncnc2cc1C#CC12CCN(CC1)CC2 | 30 to 50 nM |
| C=CC(=O)Nc1cc2c(Nc3ccc(OCc4ccccn4)c(Cl)c3)ncnc2cc1O[C@H]1CCN(C)C1 | 20 to 30 nM |
| C=CC(=O)Nc1cc2c(Nc3ccc(OCc4ccccn4)c(Cl)c3)ncnc2cc1OCCN1CCC(O)C1 (stereo not shown) | 10 to 20 nM |
